system: MARK3; details: Compound Concentration (nM):1000;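 note: KINOMEscan scanMAX binding as percent activity remaining versus control; lower means stronger binding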
Assign satisfied to entries whose Percent Control meets or exceeds 90%; assign not satisfied to the rest.

COc1cccc(-c2c[nH]c3c(N/N=C/c4ccncc4)ncnc23)c1 [GW814408X]	satisfied
CC1=C(C(=O)Nc2ccc3[nH]ncc3c2)C(c2ccc(Cl)c(Cl)c2)CC(=O)N1 (stereo not drawn) [GSK299115A]	not satisfied
Cl.c1ccc(Cc2nc3ccc(Nc4ncnc5ccccc45)cc3[nH]2)cc1 [GR269666A]	satisfied
CN(C)c1cc2c(Nc3ccc4c(cnn4Cc4ccccc4)c3)ncnc2cn1 [GW282974X]	satisfied
O=C(Nc1n[nH]c2nc(-c3ccc(O)cc3)c(Br)cc12)C1CC1	satisfied

Textbook exercise: given the entry COc1ccc(COc2ccc(Cc3cnc(N)nc3N)cc2OC)cc1 [GW632580X] , state whether its Percent Control is greater than or equal to 90%.
not satisfied

Then what about the molecule COc1ccc2cc(-c3c(-c4ccncc4)nc(-c4ccc(S(C)(=O)=O)cc4C)n3C)ccc2c1 ?
satisfied

Similarly, CN(C)CCNC(=O)Nc1ccc(N(C)c2ccnc(Nc3ccc(CS(C)(=O)=O)cc3)n2)cc1.Cl [GW830900A] ?
not satisfied
